Listed next: entries and their corresponding IC50.
Biological target: HLA-DR DRB3*0101 (DR52) (Homo sapiens, UniProt P01903+P79483)
Experiment: biochemical
Assay type: binding
Details: read-out: DRB3 *0101

Answered examples (2):
seq: MTNLAALFPPEGVSI
system: HLA-DR DRB3*0101 (DR52) (Homo sapiens, UniProt P01903+P79483)
readout: IC50
result: > 8.83 µM
//
seq: AVGLPSIPVHPIGYY
system: HLA-DR DRB3*0101 (DR52) (Homo sapiens, UniProt P01903+P79483)
readout: IC50
result: > 11.8 µM

Qu. Endpoint output: IC50 of AWYAWRNRCK . Value?
Ans. > 11.1 µM

====

Target: HLA-DR DRB1*1302 (DR13) (Homo sapiens, UniProt P01903+P01911, A100E/A169T/K41T/L162R/M171V/P40S/Q125H/Q178H/Q39Y/Q99D/R42S/S66N/T262R/V115G/W38E/Y61H)
Sequence (P01903 26-254 limits assumed, other chains not shown): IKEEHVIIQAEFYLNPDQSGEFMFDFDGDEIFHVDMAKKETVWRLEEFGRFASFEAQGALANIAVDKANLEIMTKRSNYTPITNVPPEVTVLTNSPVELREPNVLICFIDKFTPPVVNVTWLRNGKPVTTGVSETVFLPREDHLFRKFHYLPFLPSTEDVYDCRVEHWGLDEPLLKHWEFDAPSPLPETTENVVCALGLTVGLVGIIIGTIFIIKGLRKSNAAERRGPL
Experiment: biochemical
Assay type: binding
Details: DRBI *1302
No end group written: not given here.
IC50 vs 1000 nM: less than gives true; not less than gives false.

seq: GLALLSEAVLRGQAL [GLALLSEAVLRGQAL]
assignedLabel: false

seq: YLVCGERGFFYTKPT
assignedLabel: false

seq: PRWLCAGALVLAGGF
assignedLabel: false

seq: SDSNIYDLLKDLEEG
assignedLabel: false

seq: KCLVISQVSNSDSYK
assignedLabel: true

Qu. Item YKFLFTDLRIVYRDN : IC50 beneath 1000 nM, strictly?
Ans. true

Qu. Item WAGLLLDTRTLEVQS : IC50 beneath 1000 nM, strictly?
Ans. true

====

Biological target: HLA-DR DRB1*0401 (DR4) (Homo sapiens, UniProt P01903+P01911, A100K/A169T/F76Y/I96L/K127E/L162R/M171V/N62H/P40V/Q125Y/R42H/S133A/S149N/S66Y/V115G/V209L/W38E)
Assay: biochemical
Assay type: binding
Details: DRB1 *0401
pIC50: −log10 of the molar value. No end group written: not given here.
Output 1 for pIC50 not less than 6; output -1 otherwise.

seq: SKIMKLPKLPISNGK
assignedLabel: -1

seq: LLYTFRKDMDKVETF
assignedLabel: -1

seq: GLALLSEAVLRGQAL [GLALLSEAVLRGQAL]
assignedLabel: 1

Qu. pIC50 >= 6 for ENEYATGAVRPFQAA ?
Ans. 1

Qu. pIC50 >= 6 for LGFLQRSSNCQSQKL ?
Ans. 1

====

Biological target: HLA-A*3301 (Homo sapiens, UniProt P04439, A270S/D185E/E176V/E277Q/E87N/F33T/G231S/H175R/I121M/I218V/I322F/K168Q/K210R/L300P/L318F/M331R/P217A/Q86R/Q94H/R138Q/T323A/T345S/T97I/V358M/Y195H)
Test: biochemical
Type: binding
No end group written: not given here.
readout: IC50 (µM)
Quick note: give the figure in µM, leave out the unit.

Answered examples (4):
seq: KFIDFYSRIR
displayUnit: µM
IC50: 0.677
//
seq: NSVYGETLER
displayUnit: µM
IC50: 1.33
//
seq: ALERLLSLK
displayUnit: µM
IC50: 12.8
//
seq: LLFYSKVRR
displayUnit: µM
IC50: 0.276

Qu. Endpoint output: IC50 of ETNPFGICK . Value?
Ans. 0.804

Just for reference, patent US20060079453A1 is where these values come from.
